Test system: CCRF-CEM
Test: NCI tumour cell line growth inhibition, 48 h
Calls of active or inactive are those of the source. Rule as the data show it: active = GI50 up to about 1.1 µM and inactive = higher.

MOLECULE	GI50
Oc1ccc([I+]c2ccccc2)cc1O	9.46 µM (inactive)
Clc1ccc(C2=NN(c3ccccc3)C3c4cc(Br)ccc4OCC23)cc1 (centres undefined)	61.9 µM (inactive)
C#Cc1c(C)c(/C=C/C(C)=C/C(=O)OC)n(C)c1C	51.9 µM (inactive)
N#CC(NNC(=O)Cc1ccccc1)c1cccc(O)c1 (centres undefined)	> 100 µM (inactive)
COC(=O)[C@@H]1[C@H](O)[C@H](C)[C@H](O)[C@H](C)/C=C\C=C(\C)C(=O)Nc2c(C)c(OC(C)=O)c3c(c2O)C(=O)C(C)=C2OCOC(=C23)/C(C)=C/[C@@H](O)[C@H](O)[C@@H](C)[C@H]1OC(C)=O	44.9 µM (inactive)
CCN(CC)CCSc1nc(-c2c[nH]c3nc(C)ccc3c2=O)n[nH]1	> 100 µM (inactive)
Nc1ncnc2c1ncn2C1OC(CO)C(O)C(O)C1O (centres undefined)	> 100 µM (inactive)
Cc1ccc(S(=O)(=O)NNC(=O)c2cc(C)ccc2NC(=O)C23CC4CC(CC(C4)C2)C3)cc1	> 100 µM (inactive)
O=S(=O)(/N=C(\NO)Nc1ccc(Cl)cc1)c1ccc(-c2ccccn2)s1	42.8 µM (inactive)

###

System: COLO 205
Assay: NCI tumour cell line growth inhibition, 48 h
The source made the active and inactive calls. Rule as the data show it: active = GI50 up to about 1.1 µM and inactive = higher.
Outcomes: TRUE for active, FALSE for inactive

MOLECULE	GROUP_LABEL
O=S(=O)(/N=C(\NO)Nc1ccc(Cl)cc1)c1ccc(-c2ccccn2)s1	FALSE
CCCCc1c(N(C)C)c(OC(C)=O)c(-c2cn(C)c3ccccc23)oc1=O	FALSE
COc1cc2c(cc1OC)C1C(O)C(OC)C=C3CC[N+](C)(C2)C31 (stereo unspecified)	FALSE
CCN(CC)c1c(C(=O)/C=C/c2ccc(OC)cc2)c(-c2ccccc2)nn(C)c1=O	FALSE
Cc1ccc(S(=O)(=O)Nn2c(O)c(C#N)c(-c3ccc([N+](=O)[O-])cc3)c(C#N)c2=O)cc1	FALSE
CN(/N=C(\C(=O)O)c1ccccc1)C1=NCCCN1	FALSE
NCCCN1c2ccccc2Sc2ccc(Cl)cc21	FALSE
c1ccc(CN2CCCN3CCN(CCCN(Cc4ccccc4)CC3)CC2)cc1	FALSE
CN(C)c1ccccc1CC(c1c[nH]c2ccccc12)c1c[nH]c2ccccc12	FALSE
CC1=NC2(C(=O)O)C3(C(=O)O)N=C(C)OC3(C(F)(F)F)C2(C(F)(F)F)O1 (stereo unspecified)	FALSE
COC(=O)/C(Cl)=C1/CC1COCc1ccccc1 (stereo unspecified)	FALSE
CSC1=N/C(=C\c2ccccc2)C(=O)N1CN1CCCCC1	FALSE
Cc1ccc(Nc2ccc(Nc3ccc(C)cc3)c3c2C(=O)c2c(O)ccc(O)c2C3=O)cc1	FALSE
O=C1C=C(c2c(-c3ccccc3)[nH]c3ccccc23)C(=O)N1c1ccccc1	FALSE
CSc1ncc2c(C#N)c3ccccn3c(=O)c2n1	FALSE
O=C(O)c1ccc2c(c1)CC1(C2)Cc2ccccc2C1=O (stereo unspecified)	FALSE
O=C(NNC(=O)c1ccccc1O)c1cccs1	FALSE
COc1cc2nc(-c3cccs3)nc(N3C(c4cc(OC)c(OC)c(OC)c4)=NNC(=O)c4ccccc43)c2cc1OC	FALSE
CC1=NN(C(=O)c2ccccc2)C(=O)C1/N=N/c1ccccc1C(=O)O (stereo unspecified)	FALSE
Cc1ccnc2nc(-c3ccc4ccccc4c3)cc(O)c12	TRUE
O=C1C=CC(=O)c2c1ccc1c3ccccc3n(CCCCCCCCn3c4ccccc4c4ccc5c(c43)C(=O)C=CC5=O)c21	FALSE

###

Test system: SK-MEL-2
Test: NCI tumour cell line growth inhibition, 48 h
Activity calls are given as the source filed them. Rule as the data show it: active = GI50 up to about 1.1 µM and inactive = higher.
Outcomes: active, inactive

COMPOUND	GROUP_LABEL
O=C1C(Cl)C(c2ccc([N+](=O)[O-])cc2)N1n1cnc2ccccc2c1=O (stereo unspecified)	inactive
COc1c(C(C)C)cc2c3c1OC(=O)[C@@]31CCCC(C)(C)C1CC2 (stereo partly specified)	inactive
CSc1nc(NC2CC2)c2c(n1)Sc1nc3ccccc3n1N=C2	inactive
CCCN(CCC)CCc1cc(C(C)=O)n(S(=O)(=O)c2ccc(C)cc2)c1	inactive
O=C1c2cccnc2-c2nccc3c2c1nc1ccc(Br)cc13	active
COC(=O)C1CC2c3c(c4ccccc4n3C)CC(C1=O)N2C (stereo unspecified)	inactive
Cc1nnc2n1N=C(c1cc(F)c(Cl)cc1Cl)/C(=C/c1ccc3c(c1)OCO3)S2	inactive
COc1cc(C2C(Cl)C(=O)N2NC(=O)c2ccc(NC(C)=O)cc2)ccc1O (stereo unspecified)	inactive
CCN(CC)c1c(C(=O)/C=C/c2ccc(OC)cc2)c(-c2ccccc2)nn(C)c1=O	inactive
CO/C=C/c1cc2c(cc1C(OC)OC)OCO2	inactive
O=C(c1cc2c(c3ccccc13)NC1(CCCCC1)N=C2C(F)(F)F)C(F)(F)F	inactive
COc1cc(S(=O)(=O)N/N=C/c2cc(Br)c(O)c(OC)c2)c(OC)cc1NC(C)=O	inactive
C#CC(O)/C=C/C(O)CCCC(O)CC#CC(O)C#CCCCCC(O)/C=C/CCCC(O)/C=C/CCCCCCCCCCCCCC(O)C(O)C#CC(=O)O (stereo unspecified)	inactive
CCCCN/N=N/c1cn(C2OC(CO)C(O)C2O)c(=O)[nH]c1=O (stereo unspecified)	inactive
CCOC(=O)c1c2c(n(C)c1-c1ccccc1)C(=O)C(C)=CC2=O	inactive
CC(=O)Nc1ccc(C2CC(c3ccc([N+](=O)[O-])cc3)=Nc3ccccc3[S+]2[O-])cc1 (stereo unspecified)	inactive
N/C(=N\Nc1ccc(C(=O)O)cc1)c1cnccn1	inactive
Cc1c(C)c(C)n(C2OC(CO)C(O)C(O)C2O)c(=S)c1C#N (stereo unspecified)	inactive
O=S(=O)(O)c1cc(Cl)c(O)c2ncc(Cl)cc12	inactive
CC1=NC2(C(=O)O)C3(C(=O)O)N=C(C)OC3(C(F)(F)F)C2(C(F)(F)F)O1 (stereo unspecified)	inactive
CC(C)(C)c1cc2ccc(C(N)=O)cc2c(=O)[nH]1	inactive

###

Test system: DMS-114
Assay: NCI tumour cell line growth inhibition, 48 h
Activity calls are given as the source filed them. Rule as the data show it: active = GI50 up to about 1.1 µM and inactive = higher.
Documented GI50 across a set of compounds
TEST_READOUT: GI50

COMPOUND	DATA_VALUE
N=C(N)NS(=O)(=O)c1ccc(Nc2c3ccccc3nc3c(C(=O)Nc4ccc(S(N)(=O)=O)cc4)ccc(Cl)c23)cc1	> 100 µM (inactive)
COC(=O)C1CC2c3c(c4ccccc4n3C)CC(C1=O)N2C (stereo unspecified)	21.2 µM (inactive)
Cc1ccc(Nc2ccc(Nc3ccc(C)cc3)c3c2C(=O)c2c(O)ccc(O)c2C3=O)cc1	> 100 µM (inactive)
O=C(/C=C/c1ccccc1)/C=C/c1ccccc1O	17.8 µM (inactive)
OCc1cc2ccncc2c2c1[nH]c1ccccc12	6.38 µM (inactive)
CCOP(=O)(OCC)C1CC(C)OC1=O (stereo unspecified)	> 100 µM (inactive)
CO/C=C/c1cc2c(cc1C(OC)OC)OCO2	32.9 µM (inactive)
C=CNC(=S)n1nc(-c2ccccc2NC(=O)C(F)(F)F)c(=O)n(C(=S)NC=C)c1=S	12.3 µM (inactive)
Clc1ccc(C2=NN(c3ccccc3)C3c4cc(Br)ccc4OCC23)cc1 (stereo unspecified)	86.1 µM (inactive)
COc1ccc(/N=C\c2ccc(N(CCC#N)CCC#N)cc2)cc1	27.5 µM (inactive)
CN1CC(=O)N(C)c2ncn(Cc3ccccc3)c2C1=O	> 100 µM (inactive)

###

System: UACC-257
Assay: NCI tumour cell line growth inhibition, 48 h
Activity calls are given as the source filed them. No stated cut-off is given here; in the data, active = GI50 up to about 1.1 µM and inactive = higher.
TEST_READOUT: GI50

MOLECULE	DATA_VALUE
Cc1c2cc[n+](C)cc2c(COC2OC(CO)C(O)C2O)c2c3ccccc3n(C)c12 (stereo not given)	> 100 µM (inactive)
C=C1C(=O)OC2C1C(OC(=O)/C(C)=C/C)CC1(C)C(=O)CCC(=C)C21 (stereo not given)	11.2 µM (inactive)
COc1ccccc1Cn1nc(OC)c2cc([N+](=O)[O-])ccc21	> 74 µM (inactive)
Cc1nnc2n1N=C(c1ccccc1)/C(=C/c1ccc(-c3ccc(Cl)cc3)o1)S2	16.6 µM (inactive)
CC(C)CCC[C@@H](C)[C@H]1CCC2C3CC=C4C[C@@H](Oc5c6ccccc6nc6ccccc56)CCC4C3CCC21 (stereo not given in full)	> 50 µM (inactive)

###

Documented GI50 across a set of compounds
Test system: A549
Experiment: NCI tumour cell line growth inhibition, 48 h
Active and inactive are the calls of the source. Cut-off read from the data, not from the text of the source: active = GI50 up to about 1.1 µM and inactive = higher.

COMPOUND	TESTED_SYSTEM	GI50
C/C(=N\c1c2ccccc2nc2ccccc12)N(C)C	A549	28.2 µM (inactive)
N#C/C(=C/NC(=S)c1ccncc1)C(N)=O	A549	> 100 µM (inactive)
O=C1CCC2SC1CCC2=O	A549	> 100 µM (inactive)
Cc1cccc2sc(NC(=O)c3cc([N+](=O)[O-])ccc3Cl)nc12	A549	3.86 µM (inactive)
CCOP(=O)(O)C(Nc1ccc(/N=N/c2ccccc2)cc1)c1cccc(C(Nc2ccc(/N=N/c3ccccc3)cc2)P(=O)(O)OCC)c1 (centres undefined)	A549	34.2 µM (inactive)
CC1C2C=C(O)C(=O)C(C2=O)C1c1ccccc1 (centres undefined)	A549	> 100 µM (inactive)
CCOC(=O)/C=C(\C)c1ccc(C)cc1C	A549	> 100 µM (inactive)
Cc1ccc(S(=O)(=O)N/N=C2/C(=O)Nc3c(Cl)cc(Cl)cc32)cc1	A549	67.5 µM (inactive)
CN(C)Cc1ccc(-c2cc3onc(-c4ccccc4)c3c(=O)n2C)cc1	A549	16.4 µM (inactive)
CCOC(=O)NC(=O)c1cn(C2CCCCC2)c(=O)n(C)c1=O	A549	> 100 µM (inactive)
Cc1cnc2sn(-c3ccc(Oc4ccccc4)cc3)c(=O)c2c1	A549	16.8 µM (inactive)
CC(NC(=O)c1ccc(OP(=O)(OCc2ccc([N+](=O)[O-])o2)N(C)CCCCCl)cc1)c1ccc(OCC2CCCCC2)c(C(N)=O)c1 (centres undefined)	A549	2.7 µM (inactive)
O=C(COc1ccc(OCC(=O)N2C(=O)CC/C2=N\c2ccc(Cl)cc2)cc1)N1C(=O)CS/C1=N\c1ccc(Cl)cc1	A549	26.4 µM (inactive)
CC(=O)c1cccc(Nc2c3ccccc3nc3occc23)c1	A549	16.5 µM (inactive)
O=C(/C=C/c1ccc(F)c(F)c1)OCCc1ccccc1	A549	> 100 µM (inactive)
CCc1cc(-c2nsc(=O)o2)c(S(=O)(=O)CC)s1	A549	> 100 µM (inactive)
CCOC(=O)c1c2c(n(C)c1-c1ccccc1)C(=O)C(C)=CC2=O	A549	12.2 µM (inactive)
CC(C)(CC#N)c1cc(CC(C)(C)c2cc(CC(C)(C)c3cc(C(C)(C)C4(C)OCCO4)no3)no2)no1	A549	> 100 µM (inactive)
COC(=O)C1=C(c2cc(OC)c(OC)c(OC)c2)OC(c2cc(OC)c(OC)c(OC)c2)C1COC(C)=O (centres undefined)	A549	51.4 µM (inactive)
CC(C)CCCC(C)[C@H]1CCC2[C@@H]3CCC4Cc5nc6c(nc5C[C@]4(C)C3CC[C@@]21C)CC1CC[C@@H]2C(C[C@@H](O)[C@@]3(C)C2C[C@@H]2OC4(CCC(C)CO4)C(C)[C@@H]23)[C@@]1(C)C6 (some centres undefined)	A549	> 100 µM (inactive)
NC(CC(=O)Nc1cc(C(F)(F)F)ccc1Cl)=NO	A549	> 100 µM (inactive)
Cc1ccc(-[n+]2cc([O-])on2)cc1	A549	> 100 µM (inactive)
COc1ccc(-c2cc(=O)c3cc(O)ccc3o2)c(OC)c1OC	A549	35.6 µM (inactive)
CC(C)CCC[C@@H](C)[C@H]1CCC2C3CC=C4C[C@@H](Oc5c6ccccc6nc6ccccc56)CCC4C3CCC21 (some centres undefined)	A549	> 50 µM (inactive)
O=C1C2CC=CCC2C(=O)N1n1c(Cc2ccccc2)n[nH]c1=O (centres undefined)	A549	> 100 µM (inactive)
C/C=C(\C)CC/C=C/CO[Si](C)(C)C(C)(C)C	A549	39.4 µM (inactive)
Cc1nnc2n1N=C(c1ccccc1)/C(=C/c1ccc(-c3ccc(Cl)cc3)o1)S2	A549	18 µM (inactive)
O=S(=O)(O)c1cc(Cl)c(O)c2ncc(Cl)cc12	A549	77.1 µM (inactive)
[O-]c1c2cc(-[n+]3c(-c4ccccc4)cc(-c4ccccc4)cc3-c3ccccc3)cc1CO[C@@H](c1ccccc1)[C@H](c1ccccc1)OCCOCCO[C@@H](c1ccccc1)[C@H](c1ccccc1)OC2	A549	0.0451 µM (active)
CCOC(=O)c1c(-c2[nH]c(C(=O)OCc3ccccc3)c(C)c2C(=O)OCC)[nH]c(C(=O)OCc2ccccc2)c1C	A549	> 100 µM (inactive)
CC1=C(/C=C/Cl)CC(Cl)C(C)(Cl)C1 (centres undefined)	A549	> 100 µM (inactive)
CCN(CC)c1c(C(=O)/C=C/c2ccc(OC)cc2)c(-c2ccccc2)nn(C)c1=O	A549	12 µM (inactive)
CC1=C(C(=O)Nc2cccc(C(F)(F)F)c2)C(c2ccccc2F)C(C(=O)Nc2cccc(C(F)(F)F)c2)=C(C)N1	A549	4.58 µM (inactive)
O=C(CNc1ccccc1[N+](=O)[O-])Nn1cnc2ccc(S(=O)(=O)Nc3ccccc3[N+](=O)[O-])cc2c1=O	A549	> 100 µM (inactive)
CN(CCNC(=O)c1n[nH]c2c1ccc1ccccc12)CCNC(=O)c1n[nH]c2c1ccc1ccccc12	A549	2.07 µM (inactive)
Clc1ccc(CN2COc3c(cc(Cl)c4cccnc34)C2)cc1	A549	2.39 µM (inactive)
CC(C)OCC(O)COc1cc(=O)oc2ccccc12 (centres undefined)	A549	> 100 µM (inactive)
O=c1[nH]c(Cc2ccccc2)nc2c1sc1nc3ccccc3n12	A549	> 100 µM (inactive)
CCOC(=O)c1ccc(/N=c2\oc3ccc(OC)cc3cc2-c2nc3ccccc3[nH]2)cc1	A549	51.2 µM (inactive)
